Exercise: state measured composite z-score for each of the compounds provided.
target: Carbonic anhydrase 2 (Homo sapiens); assay: compounds binding carbonic anhydrase 2 – biochemical, small-molecule microarray, Alexa647-labelled CAII, profiling panel (AID 1122); conditions: CAII-A647 binding fluorescence, higher = more signal
Please reply with the number alone, leaving off any unit.

stdin: composite z-score lookup needed for "[N-]=[N+]=Nc1ccccc1[C@H]1OC(c2ccc(OCCCO)cc2)=N[C@@]1(CCS(=O)(=O)c1ccccc1)C(=O)NCc1ccccc1" , thanks.
stdout: 0.684

stdin: composite z-score lookup needed for "COc1ccc([C@H]2C[C@H]3C(Br)=C[C@@]2(CO)C(=O)[C@]32CO2)cc1" , thanks.
stdout: 0.0574

stdin: composite z-score lookup needed for O=C1OCC=C[C@H]2OC34C=CCN(Cn5nnc6ccccc65)C(=O)[C@H]3N(CCCCCO)C(=O)[C@@H]4[C@@H]12 (stereo partly specified) , thanks.
stdout: 0.9

stdin: composite z-score lookup needed for CC1CC/C=C\[C@H]2OC34C=CCN(Cc5ccccc5)C(=O)[C@H]3N(C(C)CO)C(=O)[C@@H]4C2C(=O)O1 (stereo partly specified) , thanks.
stdout: 0.331

stdin: composite z-score lookup needed for "COc1ccc(C(=O)Nc2cccc(CN3C(=O)[C@]4(O[C@H](CCn5cc(CCO)nn5)[C@@H]([Si](C)(C)c5ccc(OC)cc5)[C@@H]4C)c4ccccc43)c2)cc1" , thanks.
stdout: 0.43

stdin: composite z-score lookup needed for "COc1ccc(C#Cc2ccc3c(c2)[C@]2(C(=O)N3)[C@H](c3ccc(O)cc3)N3[C@H](c4ccccc4)[C@H](c4ccccc4)OC(=O)[C@H]3[C@@H]2C(=O)N2CCc3cc(OC)c(OC)cc3C2)cc1" , thanks.
stdout: 0.459

stdin: composite z-score lookup needed for "COC(=O)c1c(CC[C@@H](CO)NC(=O)NCCc2c[nH]c3ccccc23)oc(C(=O)Cc2ccccc2)c1C(=O)OC" , thanks.
stdout: 0.112

stdin: composite z-score lookup needed for "C#CCN(C/C=C/c1ccccc1)[C@H](CO)c1ccccc1" , thanks.
stdout: 0.0571

stdin: composite z-score lookup needed for "CCOC(=O)[C@H]1C/C=C/C[C@H](C(=O)OCC)C(=O)O[C@H]2[C@@H](OC)O[C@H](CO)[C@@H](OC(=O)c3ccc(Br)cc3)[C@@H]2OC1=O" , thanks.
stdout: 0.397

stdin: composite z-score lookup needed for "O=C(CS)NCCCCCNC(=O)[C@@H]1C[C@@H]2C(=O)NCC(=O)N2[C@@H]1c1cccc(OCCO)c1" , thanks.
stdout: 0.179

stdin: composite z-score lookup needed for OCC1C=C(/C=C/c2ccccc2)CN1Cc1ccccc1Br (stereo unspecified) , thanks.
stdout: 0.287

stdin: composite z-score lookup needed for "C[N+](C)(C)CCCC[C@@H]1NC(=O)[C@H]2C[C@@H](C(=O)NCCCCCCNC(=O)CS)[C@@H](c3ccc(O)cc3)N2C1=O" , thanks.
stdout: 0.501

stdin: composite z-score lookup needed for C[C@H]1C2[C@H](Cc3ccccc3)NC(=O)[C@]23C(=O)NCC(=O)N2CCC[C@H]2C(=O)NC/C=C/CCC/C=C/C3[C@@H]2O[C@]12C (stereo partly specified) , thanks.
stdout: -0.17

stdin: composite z-score lookup needed for OB1C=CCC(CCc2ccccc2)O1 (stereo unspecified) , thanks.
stdout: -0.498

stdin: composite z-score lookup needed for "CC(C)[Si](C#C[Si](C(C)C)(C(C)C)C(C)C)(O[C@H](C)c1cn(Cc2ccccc2)nn1)C(C)C" , thanks.
stdout: 0.48

stdin: composite z-score lookup needed for "O=C1[C@H]2C=C(I)[C@H](C[C@@H]2OCCCCO)[C@@]12CO2" , thanks.
stdout: 0.758

stdin: composite z-score lookup needed for "CC(=O)NCCCC[C@@H]1NC(=O)[C@H]2C[C@@H](C(=O)O)[C@@H](c3ccc(O)cc3)N2C1=O" , thanks.
stdout: 0.411

stdin: composite z-score lookup needed for "CCOC(=O)C[C@H]1[C@H](OC(=O)c2ccc(-c3ccccc3)cc2)[C@@H](NC(=O)c2ccccc2)c2cc(OCCCO)ccc2N1C(=O)Cc1ccc(OC)cc1" , thanks.
stdout: -0.0275

stdin: composite z-score lookup needed for "C=C(CCCC)/C(=C/C[C@H](OC(=O)c1ccncc1)c1ccc(OCCO)cc1)c1cc(C(=O)OC)ccc1OC" , thanks.
stdout: 0.644

stdin: composite z-score lookup needed for O=C1NC(=O)C2C1C=CC(C(O)c1ccc(I)cc1)N2Nc1ccccn1 (stereo unspecified) , thanks.
stdout: 0.819

stdin: composite z-score lookup needed for [N-]=[N+]=NCc1ccccc1C[C@@]1(C(=O)NCC(O)CO)N=C(c2ccc(OCCCO)cc2)O[C@@H]1c1ccccc1 (stereo partly specified) , thanks.
stdout: 0.432

stdin: composite z-score lookup needed for CCOc1cc(C(O)C2C=CC3C(=O)N(c4ccccc4)C(=O)C3N2Nc2ccc(C(C)C)cc2)ccc1O (stereo unspecified) , thanks.
stdout: 0.79

stdin: composite z-score lookup needed for "CCOC(=O)C1=CC[C@@H](c2ccccc2)N(S(=O)(=O)c2ccc(C)cc2)[C@H]1c1ccc(CC)cc1" , thanks.
stdout: 0.571

stdin: composite z-score lookup needed for "O=C1C[C@@](C(=O)NCc2ccccc2)(c2ccc([N+](=O)[O-])cc2)[C@@H](c2ccc(CO)cc2)N1CC12CC3CC(CC(C3)C1)C2" , thanks.
stdout: 0.479

stdin: composite z-score lookup needed for CCCCN1CC=CC23O[C@@H]4C=CCCOC(=O)C4[C@H]2C(=O)N(CCCCCO)[C@@H]3C1=O (stereo partly specified) , thanks.
stdout: 0.861

stdin: composite z-score lookup needed for "CCCCCCc1nc(-c2ccc(-c3ccc(Cl)c(Cl)c3)o2)cc2c1[Si](C(C)C)(C(C)C)O[C@H]2c1ccccc1" , thanks.
stdout: 0.739

stdin: composite z-score lookup needed for CN1C(=O)C2C=CC(C(O)c3ccccc3)N(N3CCCCC3)C2C1=O (stereo unspecified) , thanks.
stdout: 0.846

stdin: composite z-score lookup needed for OCCCC1=CC(C2CC2)N(Cc2cccc(OC(F)(F)F)c2)CC1 (stereo unspecified) , thanks.
stdout: 0.783

stdin: composite z-score lookup needed for "NC(=O)[C@@H]1[C@H]2C(=O)O[C@H](c3ccccc3)[C@H](c3ccccc3)N2[C@H](c2ccc(OCCO)cc2)[C@@]12C(=O)Nc1ccc(C#CC3=CCCCC3)cc12" , thanks.
stdout: 0.647

stdin: composite z-score lookup needed for "C=C(CCCC)C(=O)CC[C@H](OC(=O)c1cccnc1)c1ccc(OCCO)cc1" , thanks.
stdout: 0.72

stdin: composite z-score lookup needed for CC(c1ccccc1)C(O)C1C=CC2C(=O)N(c3ccccc3)C(=O)C2N1Nc1ccccc1 (stereo unspecified) , thanks.
stdout: 0.493
